From various publications: IC50 for 11-beta-hydroxysteroid dehydrogenase 1 (Mus musculus).
QUANTITY KIND: IC50 (nM)

Worked cases, answers included:
# COMPOUND, EXPERIMENTAL SYSTEM, UNIT LABEL, IC50
rows = [
    ("Cc1ccc(C2(c3nnc4n3CCCCCC4)CCCC2)cc1", "11-beta-hydroxysteroid dehydrogenase 1 (Mus musculus)", "nM", 25),
    ("Cn1c(-c2ccc(I)cc2)nnc1C1(c2ccc(Cl)cc2)CCC1", "11-beta-hydroxysteroid dehydrogenase 1 (Mus musculus)", "nM", 8.2),
    ("CC(C)(Oc1ccccc1)C(=O)N[C@H]1C2CC3CC1C[C@](C(N)=O)(C3)C2", "11-beta-hydroxysteroid dehydrogenase 1 (Mus musculus)", "nM", 4),
    ("C=C1C[C@@]23CC[C@@H]4[C@](C)(CO)CCC[C@@]4(C)[C@@H]2CC[C@H]1C3", "11-beta-hydroxysteroid dehydrogenase 1 (Mus musculus)", "nM", 1550),
]

(I) CC(C)(Oc1ccc(Cl)cc1)C(=O)N[C@H]1C2C[C@@H]3C[C@H]1C[C@@](c1ccno1)(C2)C3
(II) Cn1c(-c2ccc(-c3cccc(S(C)(=O)=O)c3)cc2Cl)nnc1C1(c2ccc(Cl)cc2)CCC1
Determine, for I and II , which has the greater value of IC50. State your choice using its label. I

(P) Cc1nc2ccccc2n1-c1ccc(-c2nnc(C3(c4ccc(Cl)cc4)CCC3)n2C)c(Cl)c1
(Q) Cc1cn(-c2ccc(-c3nnc(C4(c5ccc(Cl)cc5)CCC4)n3C)c(Cl)c2)c(C)n1
(R) CCCCCC12CCC(c3nnc4n3CCCCCC4)(CC1)CC2
(S) O=C(O)CC1(c2ccc(F)cc2)C2CCCC1CC(O)C2 (single isomer, unassigned; 6i)
With regard to IC50, arrange the entries in ascending order, please. Please express your ranking as an ordered list of the labels. R, Q, P, S
(R: 3 nM, Q: 7.2 nM, P: 57 nM, S: 2200 nM)
